tested on: Leishmania braziliensis; experiment: Antileishmanial activity against extracellular Leishmania braziliensis promastigotes after 72 hrs; format: functional, organism-based
RESULT_TYPE: IC50 (µM)
One number for each entry, in µM.

Request: Request body: readout IC50, system Leishmania braziliensis, query MEGLUMINE ANTIMONATE . Return the value.
Result: 25.6
